experimentalTarget: WT KRAS (Homo sapiens)
assayExplanation: KRAS WT Probe Displacement Assay (TR-FRET, GDP-loaded)
Assay type: binding
cond: KRAS WT, read-out: KRAS^WT Probe Displacement Assay IC50
pIC50: −log10 of the molar value.
quantityKind: pIC50

Per the record, Cc1cc(N)cc(-c2nc3c4c(nc(OCC5(CN6CCC6)CC5(F)F)nc4c2F)N2C[C@H]4CC[C@H](N4)[C@H]2CCO3)c1C(F)(F)F (stereo partly drawn) [Example 19] has pIC50 of 6.00 to 8.52

The reported value for [2H]C([2H])([2H])N1CCC(C(F)F)C(C)(C([2H])([2H])Oc2nc3c4c(nc(-c5cc(N)cc(Cl)c5C(F)(F)F)c(F)c4n2)OCC[C@@H]2[C@@H]4CC[C@H](CN32)N4)C1 (single isomer, unassigned) [Example 246] in terms of pIC50 is 6.00 to 8.52

For Cc1cc(N)cc(-c2nc3c4c(nc(OCC5(CN6CC(F)C6)CC5)nc4c2F)N2C[C@H]4CC[C@H](N4)[C@H]2CCO3)c1C(F)(F)F [Example 69] the compound record lists pIC50 as 6.00 to 8.52

For reference, reported pIC50 for CN(C)C1(C)CN(c2nc3c4c(nc(-c5cc(N)cc(Cl)c5C(F)(F)F)c(F)c4n2)OCC[C@@H]2[C@@H]4CC[C@H](CN32)N4)C1 [Example 31] stands at 6.00 to 8.52

Form field pIC50, entry Cc1cc(N)cc(-c2nc3c4c(nc(OCC5(CN6CC=CC6CO)CC5)nc4c2F)N2C[C@H]4CC[C@H](N4)[C@H]2CCO3)c1C(F)(F)F (stereo partly drawn) [Example 161] : 6.00 to 8.52

Sample Cc1cc(N)cc(-c2nc3c4c(nc(OC[C@@H]5COC[C@H]5N(C)C)nc4c2F)N2C[C@H]4CC[C@H](N4)[C@H]2CCO3)c1C(F)(F)F [Example 13] ; pIC50 observed: 6.00 to 8.52

The reported value for Nc1cc(Cl)c(C(F)(F)F)c(-c2nc3c4c(nc(OC[C@@]56C[C@@H](F)CN5CC5(CC5)C6)nc4c2F)N2C[C@H]4CC[C@H](N4)[C@H]2CCO3)c1 [Example 207] in terms of pIC50 is 8.52 to 9.52

The compound listed as CCN1C[C@H](F)C[C@H]1[C@H](C)Oc1nc2c3c(nc(-c4cc(N)cc(C)c4C(F)(F)F)c(F)c3n1)OCC[C@@H]1[C@@H]3CC[C@H](CN21)N3 [Example 222] shows pIC50 equal to 6.00 to 8.52

Entry Cc1cc(N)cc(-c2nc3c4c(nc(OCC5(CN6CCOCC6)CC5)nc4c2F)N2C[C@H]4CC[C@H](N4)[C@H]2CCO3)c1C(F)(F)F [Example 67] ; pIC50 = 6.00 to 8.52

Notebook: Cc1cc(N)cc(-c2nc3c4c(nc(OCC5(CN6CCC(C)(C#N)C6)CC5)nc4c2F)N2C[C@H]4CC[C@H](N4)[C@H]2CCO3)c1C(F)(F)F (stereo partly drawn) [Example 167] , pIC50 read as 8.52 to 9.52

pIC50 in this record for Cc1cc(N)cc(-c2nc3c4c(nc(OC[C@@]56C[C@H](F)CN5C[C@H](F)C6)nc4c2F)N2C[C@H]4CC[C@H](N4)[C@H]2CCO3)c1C(F)(F)F [Example 213] : 6.00 to 8.52

Reported pIC50 ( Cc1cc(N)cc(-c2nc3c4c(nc(OCC5(CN6CC=C[C@H]6C)CC5)nc4c2F)N2C[C@H]4CC[C@H](N4)[C@H]2CCO3)c1C(F)(F)F [Example 160] ) = 6.00 to 8.52

###

Can you tell me pIC50 for the items I'm about to list?
experimentalTarget: KRAS G12D (Homo sapiens, UniProt P01116, G12D)
Sequence (P01116 1-188 isoform P01116-2 G12D): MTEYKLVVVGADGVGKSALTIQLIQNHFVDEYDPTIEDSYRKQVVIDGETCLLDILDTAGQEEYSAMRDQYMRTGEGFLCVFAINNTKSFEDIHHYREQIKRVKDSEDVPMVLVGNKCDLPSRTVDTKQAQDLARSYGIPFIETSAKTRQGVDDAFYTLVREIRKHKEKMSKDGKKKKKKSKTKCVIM
assayExplanation: KRAS G12D Probe Displacement Assay (TR-FRET, GDP-loaded)
Format: binding
cond: KRAS G12D, read-out: KRAS^G12D Probe Displacement Assay IC50
pIC50: −log10 of the molar value.

Entry Cc1cc(N)cc(-c2nc3c4c(nc(O[C@H]5COCC[C@@H]5N(C)C)nc4c2F)N2C[C@H]4CC[C@H](N4)[C@H]2CCO3)c1C(F)(F)F [Example 8] — recorded pIC50 = 8.52 to 9.52

What the record says about Cc1cc(N)cc(-c2nc3c4c(nc(OCC5(CN6CC7(CCOCC7)C6)CC5)nc4c2F)N2C[C@H]4CC[C@H](N4)[C@H]2CCO3)c1C(F)(F)F [Example 85] : pIC50 is > 9.52

Form: compound = C=CCN1CCC[C@H]1[C@H](C)Oc1nc2c3c(nc(-c4cc(N)cc(C)c4C(F)(F)F)c(F)c3n1)OCC[C@@H]1[C@@H]3CC[C@H](CN21)N3 [Example 231] ; pIC50 = > 9.52

Cc1cc(N)cc(-c2nc3c4c(nc(OCC5(C(C)N(C)C)CC5(F)F)nc4c2F)N2C[C@H]4CC[C@H](N4)[C@H]2CCO3)c1C(F)(F)F (single isomer, unassigned) [Example 59] has a reported pIC50 of > 9.52

Per the records, this compound ( Cc1cc(N)cc(-c2nc3c4c(nc(OCC5(CN6C[C@H]7C[C@H]7[C@@H]6CO)CC5)nc4c2F)N2C[C@H]4CC[C@H](N4)[C@H]2CCO3)c1C(F)(F)F [Example 96] ) has pIC50 equal to > 9.52

The reported pIC50 of the compound Cc1cc(N)cc(-c2nc3c4c(nc(OCC5(CN6CCC(C#N)C6)CC5)nc4c2F)N2C[C@H]4CC[C@H](N4)[C@H]2CCO3)c1C(F)(F)F (stereo partly drawn) [Example 166] was > 9.52

###

experimentalTarget: WT KRAS (Homo sapiens, UniProt P01116)
Sequence (P01116 1-188 isoform P01116-2): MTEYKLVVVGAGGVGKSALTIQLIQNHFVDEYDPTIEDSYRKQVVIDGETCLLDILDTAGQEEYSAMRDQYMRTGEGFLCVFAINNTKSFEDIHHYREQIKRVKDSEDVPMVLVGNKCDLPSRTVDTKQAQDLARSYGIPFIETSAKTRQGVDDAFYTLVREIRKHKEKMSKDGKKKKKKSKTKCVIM
assayExplanation: KRAS WT Probe Displacement Assay (TR-FRET, GDP-loaded)
Type: binding
cond: KRAS WT, read-out: KRAS^WT Probe Displacement Assay IC50
quantityKind: IC50

Lab book: IC50 of Cc1nc(N)cc(-c2nc3c4c(nc(OCC5(CN6CCC(=C(F)F)C6)CC5)nc4c2F)N2C[C@H]4CC[C@H](N4)[C@H]2CCO3)c1C(F)(F)F noted as 3 to 1000 nM

Given item Cc1cc(N)cc(-c2nc3c4c(nc(OCC5(CN6CCC6)CC5)nc4c2F)N2C[C@H]4CC[C@H](N4)[C@H]2CCO3)c1C(F)(F)F , the value recorded as its IC50 is 3 to 1000 nM

Value of measured IC50 for the entry COC[C@@H]1[C@H]2C[C@H]2CN1CC1(COc2nc3c4c(nc(-c5cc(N)cc(C)c5C(F)(F)F)c(F)c4n2)OCC[C@@H]2[C@@H]4CC[C@H](CN32)N4)CC1 : 3 to 1000 nM

IC50 reading for Cc1cc(N)cc(-c2nc3c4c(nc(OCC5(C)CN(CC6CC6)CC/C5=C\F)nc4c2F)N2C[C@H]4CC[C@H](N4)[C@H]2CCO3)c1C(F)(F)F (single isomer, unassigned) [Example 239] : 0.3 to 3 nM

Per the records, this molecule ( Cc1cc(N)cc(-c2nc3c4c(nc(OCC5(CN6CCC7(C6)CC7(F)F)CC5)nc4c2F)N2C[C@H]4CC[C@H](N4)[C@H]2CCO3)c1C(F)(F)F (single isomer, unassigned) [Example 139] ) has IC50 equal to 3 to 1000 nM

###

Would you mind telling me the reported IC50 of each entry?
experimentalTarget: KRAS G12D (Homo sapiens, UniProt P01116, G12D)
assayExplanation: KRAS G12D Probe Displacement Assay (TR-FRET, GDP-loaded)
Type: binding
cond: KRAS G12D, read-out: KRAS^G12D Probe Displacement Assay IC50
Text: The synthetic routes of probe 1 and 2, which have been disclosed in PCT/CN2022/070676, are hereby incorporated herein.

The reported KRAS G12D (Homo sapiens, UniProt P01116, G12D) IC50 of Cc1cc(N)cc(-c2nc3c4c(nc(OCC5(CN6C[C@@H]7C[C@H]6CO7)CC5)nc4c2F)N2C[C@H]4CC[C@H](N4)[C@H]2CCO3)c1C(F)(F)F is < 0.3 nM

Noted IC50 for Cc1cc(N)cc(-c2nc3c4c(nc(OCC5(CN6C[C@H]7CC[C@@H](C6)O7)CC5)nc4c2F)N2C[C@H]4CC[C@H](N4)[C@H]2CCO3)c1C(F)(F)F , tested on KRAS G12D (Homo sapiens, UniProt P01116, G12D): < 0.3 nM

Reported IC50 (KRAS G12D (Homo sapiens, UniProt P01116, G12D)) for entry Cc1cc(N)cc(-c2nc3c4c(nc(OCC5(CN(C)C)CC5)nc4c2F)N2C[C@H]4CC[C@H](N4)[C@H]2CCO3)c1C(F)(F)F is < 0.3 nM

I looked up Cc1cc(N)cc(-c2nc3c4c(nc(O[C@@H](C)[C@@H]5CCCN5C)nc4c2F)N2C[C@H]4CC[C@H](N4)[C@H]2CCO3)c1C(F)(F)F and its IC50 for KRAS G12D (Homo sapiens, UniProt P01116, G12D) was < 0.3 nM

Lab note: compound Cc1cc(N)cc(-c2nc3c4c(nc(O[C@H]5CCOC[C@@H]5N(C)C)nc4c2F)N2C[C@H]4CC[C@H](N4)[C@H]2CCO3)c1C(F)(F)F tested on KRAS G12D (Homo sapiens, UniProt P01116, G12D); recorded IC50 was 3 to 1000 nM

I looked up Cc1cc(N)cc(-c2nc3c4c(nc(OCC56C[C@@H](F)CN5C[C@H](F)C6)nc4c2F)N2C[C@H]4CC[C@H](N4)[C@H]2CCO3)c1C(F)(F)F and its IC50 for KRAS G12D (Homo sapiens, UniProt P01116, G12D) was < 0.3 nM

These measurements were taken from patent US20260347373A1.
